Recorded IC50 by entry
system: SCC-15 human squamous carcinoma cells; experiment: Cytotoxicity, neutral red uptake (NR) assay; format: cell-based; details: Homo sapiens

smilesString: COc1c(O)cc2oc3ccccc3c(=O)c2c1O
IC50: > 40 µM

Now consider a different molecule.
Per the record, COc1ccc2oc3ccccc3c(=O)c2c1 has IC50 of > 40 µM

----------
biological target: CeTS (Caenorhabditis elegans); assay: Inhibition of TS-catalyzed reaction (tritium release from [5-3H]dUMP); format: biochemical, C. elegans; conditions: IC50 Assessment, 20 µM dUMP, 50 µM meTHF
Sequence (Q9Y052 1-315): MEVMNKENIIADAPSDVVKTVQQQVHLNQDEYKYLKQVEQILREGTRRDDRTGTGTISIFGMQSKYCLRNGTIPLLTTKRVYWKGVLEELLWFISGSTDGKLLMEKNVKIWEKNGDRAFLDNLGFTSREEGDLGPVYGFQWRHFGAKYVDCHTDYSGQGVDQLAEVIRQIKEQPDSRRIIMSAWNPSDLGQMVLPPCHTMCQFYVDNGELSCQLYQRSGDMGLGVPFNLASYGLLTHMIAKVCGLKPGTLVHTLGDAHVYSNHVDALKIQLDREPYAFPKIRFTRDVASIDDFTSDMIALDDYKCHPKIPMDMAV
measurementLabel: IC50

Item COc1ccc2oc3ccccc3c(=O)c2c1 was tested on CeTS (Caenorhabditis elegans); the reported IC50 is > 1000 µM
